- Protocol summary: chemical genetic growth profiling, strain panel (AID 1159580);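 note: tested at 20 µM; growth read once vehicle control cultures reached saturation at 30 °C; 1 = growth at the plate median or of vehicle wells; lower values mean less growth of the strain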
- Recorded conditions: S. cerevisiae deletion strains, growth OD, locus YNL250W, strain rad50, active compounds read low
Screen size: about 5,500 compounds; about 2,000 (36%) were called active. Roughly 18% stayed inconclusive and do not appear here. This is one part of the list.
Reported normalized growth values for the following molecules.
Respond using a number only.

Molecule	Observed result
O=c1c(O)c(-c2ccc(O)cc2O)oc2cc(O)cc(O)c12	1.01
CC1(C)C(=O)C=C[C@@]2(C)C1CC(=O)[C@]1(C)C2CC[C@@]2(C)[C@H](c3ccoc3)OC(=O)[C@H]3O[C@]321 (stereo partly drawn)	1.03
O=c1c(O)c(-c2ccc(O)c(O)c2)oc2cc(O)cc(O)c12	1.02
CCOC(=O)NC1=C(C2CC2)C(=O)C(NC(=O)OCC)=C(C2CC2)C1=O	0.981
NC(CSCSCC(N)C(=O)O)C(=O)O (stereo not drawn)	1.02

Reported normalized growth for COc1cc(O)c2c(=O)c(O)c(-c3ccc(O)c(O)c3)oc2c1 : what is it?
0.986

Return reported normalized growth; argument: CC1(C)C(=O)C=C[C@@]2(C)C1C=C[C@]1(C)C2CC[C@@]2(C)[C@H](c3ccoc3)OC(=O)C3OC321 (stereo partly drawn)
0.987

Recorded normalized growth of CC1O[C@@H](Oc2c(-c3ccc(O)c(O)c3)oc3cc(O)cc(O)c3c2=O)[C@H](O)[C@H](O)[C@H]1O (stereo partly drawn) , please.
0.983

I would be grateful if you could share the reported normalized growth for COc1cc(OC)c2c(=O)c(OC)c(-c3ccc(OC)c(OC)c3)oc2c1 .
1.03

Which value of normalized growth has been reported for COc1ccc(-c2oc3c(CC=C(C)C)c(O[C@@H]4O[C@H](CO)[C@@H](O)[C@H](O)[C@H]4O)cc(O)c3c(=O)c2O[C@@H]2O[C@@H](C)[C@H](O)[C@@H](O)[C@H]2O)cc1 in the records?
0.93

Give its normalized growth value. Item: CC(=O)O[C@@H]1CC(=O)[C@@]2(C)C(CC(=O)[C@]3(C)C2CC[C@@]2(C)[C@H](c4ccoc4)OC(=O)C4OC423)C1(C)C (stereo partly drawn)
1.04

Reported normalized growth, molecule CNC(C)C(O)c1ccccc1 (stereo not drawn) : ____
1.02

// lookup normalized growth for CC1(C)C(=O)C=C[C@@]2(C)C1C[C@@H](O)[C@]1(C)C2CC[C@@]2(C)[C@H](c3ccoc3)OC(=O)[C@H]3O[C@]321 (stereo partly drawn)
1

Which normalized growth value is on record for CCc1cc(C(N)=S)ccn1 ?
0.964

Entry under review: C[C@@H]1O[C@@H](OC[C@H]2OC(Oc3c(-c4ccc(O)c(O)c4)oc4cc(O)cc(O)c4c3=O)[C@H](O)[C@@H](O)[C@@H]2O)[C@H](O)[C@H](O)[C@H]1O (stereo partly drawn) . Reported normalized growth?
0.963

###

- Protocol summary: chemical genetic growth profiling, strain panel (AID 1159580)
- Recorded conditions: S. cerevisiae deletion strains, growth OD, locus YLR058C, strain SHM2
Among all 5,500 compounds or so, about 2,000 (36%) were called active. Roughly 18% stayed inconclusive and do not appear here. Cut-off read from the data, not from the text of the source: active = normalized growth mostly below about 0.91 (no sharp cut-off); inconclusive = no clear call, values can overlap the other calls; inactive = mostly above about 0.92. The list shows a part of the results.
The reply should be one of these categories: active, inactive

Worked cases, answers included:
Compound	Answer label
CC(C)c1c(O)ccc2c1CCC1[C@@](C)(CO)CCC[C@]21C (some centres undefined)	inactive
CC(C)c1c(O)ccc2c1CCC1[C@@](C)(C=O)CCC[C@]21C (some centres undefined)	active
CCCC(C)(COC(N)=O)COC(=O)NC(C)C (centres undefined)	inactive
CCC(N)C(O)c1ccc(O)c(O)c1 (centres undefined)	inactive

// param item: CC/C(=C(/CC)c1ccc(O)cc1)c1ccc(O)cc1 ; yields the recorded call
inactive

###

- Protocol summary: chemical genetic growth profiling, strain panel (AID 1159580)
- Recorded conditions: S. cerevisiae deletion strains, growth OD, locus YOR083W, strain WHI5 (second series)
Hit rate of the full screen: of about 5,500 compounds, about 2,000 (36%) were called active. Inconclusive results (about 18%) are left out. Rule as the data show it: active = normalized growth mostly below about 0.91 (no sharp cut-off); inconclusive = no clear call, values can overlap the other calls; inactive = mostly above about 0.92. Some of the results follow.
The reply should be one of these categories: class 1 (active), class 0 (inactive)

Worked set:
Compound	Answer label
N#C/C(=C\c1ccc(O)c(O)c1)C(=O)NCCc1ccccc1	class 0
O=c1c(O)c(-c2cc(O)c(O)c(O)c2)oc2cc(O)cc(O)c12	class 0
CC(C)(C)c1cc(C=C(C#N)C#N)cc(C(C)(C)C)c1O	class 1
N#C/C(=C/c1ccc(O)c(O)c1)C(N)=S	class 0
N#CC(C#N)=Cc1cc(O)c(O)c(O)c1	class 0

From here, focus on the item given below.
Short answer needed: outcome of this test for NC(=O)OCC(COC(N)=O)c1ccccc1 ?
class 0

###

- Protocol summary: chemical genetic growth profiling, strain panel (AID 1159580)
- Recorded conditions: S. cerevisiae deletion strains, growth OD, locus YPR163C, strain tif3, active compounds read low
In all, about 5,500 compounds went through this assay and about 2,000 (36%) were called active. Roughly 18% stayed inconclusive and do not appear here. Some of the results follow.
Parameter: normalized growth
Format: numeric value only, no unit, no commentary.

Consider the following illustrative entries.
Compound	normalized growth
CC(C)(C)NCC(O)c1cc(O)cc(O)c1 (stereo unspecified)	0.978
CCc1cc(C(N)=S)ccn1	0.986
CC12CCC3c4ccc(OCc5ccccc5)cc4CCC3C1C[C@@H](O)[C@@H]2O (stereo partly specified)	0.0746
CCc1cccc(CC)c1N(COC)C(=O)CCl	1.03
O=c1c(O)c(-c2ccc(O)cc2O)oc2cc(O)cc(O)c12	1.02

Requested read-out: normalized growth. Entry: C[C@]12CCC3c4ccc(OS(=O)(=O)O)cc4CCC3C1CC[C@H]2O (stereo partly specified)
0.984

What does the record list as normalized growth for C[C@]12CCC3c4ccc(O)cc4CCC3C1C[C@@H](O)[C@@H]2O (stereo partly specified) ?
0.996

Param item = COc1ccc2c(c1)CCC1C2CC[C@@]2(C)C1CC[C@@H]2O (stereo partly specified) ; retrieve measured normalized growth.
0.657

Bench note: what normalized growth did CCCCCCC(C)OC(=O)COc1ccc(Cl)cc1Cl (stereo unspecified) show?
1.01

I'd like to know its normalized growth. The compound in question is CO[C@@]1(NC(=O)C(C(=O)O)c2ccc(O)cc2)C(=O)N2C(C(=O)O)=C(CSc3nnnn3C)CO[C@@H]21 (stereo partly specified)
1.02

Given the compound CCOC(=O)NC1=C(C2CC2)C(=O)C(NC(=O)OCC)=C(C2CC2)C1=O , what is its reported normalized growth?
0.988

###

Catalogue of normalized growth values
- Protocol summary: chemical genetic growth profiling, strain panel (AID 1159580);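 note: tested at 20 µM; growth read once vehicle control cultures reached saturation at 30 °C; 1 = growth at the plate median or of vehicle wells; lower values mean less growth of the strain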
- Recorded conditions: S. cerevisiae deletion strains, growth OD, locus YJL095W, strain BCK1, active compounds read low
Hit rate of the full screen: of about 5,500 compounds, about 2,000 (36%) were called active. Inconclusive results (about 18%) are left out. The list shows a part of the results.
Number only, please.

May I ask what normalized growth has been recorded for COc1ccccc1NC(=S)N/N=C\c1ccccc1O ?
0.978

For the molecule COC(=O)[C@]1(C)CCC[C@]2(C)c3ccc(C(C)C)cc3C(=O)CC12 (stereo partly specified) , what normalized growth is on record?
0.889

###

We begin with a simple list: items and their reported normalized growth.
- Protocol summary: chemical genetic growth profiling, strain panel (AID 1159580);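 note: tested at 20 µM; growth read once vehicle control cultures reached saturation at 30 °C; 1 = growth at the plate median or of vehicle wells; lower values mean less growth of the strain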
- Recorded conditions: S. cerevisiae deletion strains, growth OD, locus YNL071W, strain lat1, active compounds read low
The whole screen tested about 5,500 compounds, of which about 2,000 (36%) were called active. Not shown: some 18% with an inconclusive outcome. The list shows a part of the results.
# output: bare number, no unit

Smiles string	normalized growth
COc1cc2occc2c2oc(=O)ccc12	1
Cc1[nH]ccc2c1[nH]c1cc(=O)ccc12	1
COc1cccc2c(C)cc(=O)[nH]c12	0.897
CC(=O)OCC1=C(C(=O)O)N2C(=O)[C@@H](NC(=O)Cc3cccs3)[C@H]2SC1	0.994
O=c1ccc2c(O)c3ccoc3cc2o1	0.979

--- query ---
Query: normalized growth; subject: COc1cc(OC)c2ccc(=O)oc2c1
0.953

###

In this section, each of the molecules is paired with its reported normalized growth.
- Protocol summary: chemical genetic growth profiling, strain panel (AID 1159580);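 note: tested at 20 µM; growth read once vehicle control cultures reached saturation at 30 °C; 1 = growth at the plate median or of vehicle wells; lower values mean less growth of the strain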
- Recorded conditions: S. cerevisiae deletion strains, growth OD, locus YOR080W, strain dia2, active compounds read low
Screen size: about 5,500 compounds; about 2,000 (36%) were called active. Roughly 18% stayed inconclusive and do not appear here. This is one part of the list.
Give your answer as a number; write no unit.

Worked cases, answers included:
Molecule	Parameter	Observed result
CNC(=O)Oc1cccc2c1OC(C)(C)O2	normalized growth	1
O=C(O[C@@H]1Cc2c(O)cc(O)cc2O[C@@H]1c1cc(O)c(=O)c2c(O)c(O)cc([C@H]3Oc4cc(O)cc(O)c4C[C@H]3O)c2c1)c1cc(O)c(O)c(O)c1	normalized growth	0.253
COC(=O)[C@]1(C)CCC[C@]2(C)c3ccc(C(C)C)cc3C(=O)CC12 (some centres undefined)	normalized growth	0.965
COC(=O)c1c(C)cc(O)cc1O	normalized growth	1.01

Entry under review: CCOC(=O)c1c(C)cc(OC)cc1O . Reported normalized growth?
0.997

Record request: normalized growth value, item O=C(O[C@@H]1Cc2c(O)cc(O)cc2O[C@@H]1c1cc(O)c(=O)c2c(O)c(O)cc([C@H]3Oc4cc(O)cc(O)c4C[C@H]3OC(=O)c3cc(O)c(O)c(O)c3)c2c1)c1cc(O)c(O)c(O)c1
0.286

Need normalized growth of O=c1cc(-c2ccc(O)cc2)oc2cc(O[C@@H]3O[C@H](CO)[C@@H](O)[C@H](O)[C@H]3O)cc(O)c12 , thanks.
1.01

For the molecule CC(C)(C)NCC(O)c1cc(O)cc(O)c1 (centres undefined) , what normalized growth is on record?
0.996

For the molecule shown here, O=C(OC1Cc2c(O)cc(O)cc2OC1c1cc(=O)c(O)c2c(O)c(O)cc(C3Oc4cc(O)cc(O)c4CC3O)c2c1)c1cc(O)c(O)c(O)c1 (centres undefined) , give the reported normalized growth.
0.966

// lookup normalized growth for CC(=O)Oc1ccc2c(c1C(C)C)CCC1C(C)(C)CCC[C@]21C (some centres undefined)
1.02

If you can, please state the reported normalized growth value of CC(C)(C)NCC(O)c1cc(Cl)c(N)c(Cl)c1 (centres undefined) .
0.998

Which normalized growth is listed for COc1ccc(-c2oc3cc(O[C@H]4O[C@H](CO)[C@@H](O)[C@H](O)[C@H]4O)c(OC)c(O)c3c(=O)c2OC)cc1O ?
0.999

Report normalized growth for O=c1c(O)c(-c2ccc(O)c(O)c2)oc2c(O)c(O)cc(O)c12 please.
1.01

Entry under review: CCOC(=O)c1c(C)cc(O)cc1O . Reported normalized growth?
0.942

Origin of measurements: PubChem BioAssay AID1159580
